Hello, the source for this data is patent US10875851B2, in case you need it.

# STUDY SYSTEM: human Factor XIIa (Homo sapiens (Human))
# METHOD SUMMARY: Factor XIIa Assay
# Type: biochemical
# SETTINGS: purified human Factor XIIa 500 pM; substrate n-Acetyl-Lys-Pro-Arg-AFC 100 μM; pH 7.4; read-out: FXIIa IC50
IC50 overview
State the answer as a number, implicitly in nM.

Answered cases to consult:
[
  {
    "COMPOUND": "C[C@@H]1N=C(N2CCN(C(=O)[C@@H](CCCCN3CCCCC3)NC3CCC(CN)CC3)[C@H](C(=O)NCc3ccc(C(N)=O)s3)C2)O[C@H]1c1ccccc1 (stereo partly drawn) [Example 177]",
    "READOUT NAME": "IC50",
    "MEASURED VALUE": 27.9
  },
  {
    "COMPOUND": "CC(C)S(=O)(=O)N1CCC([C@@H](NC2CCCCC2)C(=O)N2CCN(C(=O)Oc3ccccc3Cl)C[C@H]2C(=O)NCc2cccs2)CC1 [Example 63]",
    "READOUT NAME": "IC50",
    "MEASURED VALUE": 2.6
  }
]

Let me know recorded IC50 for Cc1ccc(OC(=O)N2CCN(C(=O)[C@@H](CCCCN3CCCCC3)NC3CCC4(CC3)CCN(Cc3ccccc3)C4)[C@H](C(=O)NCc3cccs3)C2)c(Cl)c1C (stereo partly drawn) [Example 104] , thanks. 0.2

Name the recorded IC50 of the compound listed here: O=C(NCc1cccs1)[C@@H]1CN(C(=O)Oc2cccc3c2CCNC3)CCN1C(=O)[C@@H](CC1CCCCC1)NC1CCCCC1 [Example 36] 4.1

Specify reported IC50 for the compound shown: O=C(NCc1cccs1)[C@@H]1CN(C(=O)Oc2cccc3ccc(O)nc23)CCN1C(=O)[C@@H](CC1CCCCC1)NC1CCCCC1 [Example 33] 20

State its IC50: Cc1ccc(OC(=O)N2CCN(C(=O)[C@@H](CCCCNC(C)C)NC(C)C)[C@H](C(=O)NCc3cccs3)C2)c(Cl)c1C [Example 103] 1.4

---

# STUDY SYSTEM: human Factor XIIa (Homo sapiens (Human), UniProt P00748)
# Sequence (P00748 373-615): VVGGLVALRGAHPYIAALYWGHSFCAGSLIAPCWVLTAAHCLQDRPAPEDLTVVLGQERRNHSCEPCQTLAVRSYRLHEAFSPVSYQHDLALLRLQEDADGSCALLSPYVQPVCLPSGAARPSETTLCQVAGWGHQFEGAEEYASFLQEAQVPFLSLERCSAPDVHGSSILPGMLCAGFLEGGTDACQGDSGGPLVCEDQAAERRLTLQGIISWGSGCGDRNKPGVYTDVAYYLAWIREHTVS
READOUT NAME: IC50 (nM)
Output spec: scalar in nM, unitless text.

Please review the entries below; each comes with its answer.
[
  {
    "COMPOUND": "CC[C@@H](C)N[C@H](CCCCN1CCCCC1)C(=O)N1CCN(C2=N[C@@H](C)[C@H](c3ccccc3)O2)C[C@H]1C(=O)NCc1cccc(Cl)c1",
    "IC50 (nM)": 2.5
  },
  {
    "COMPOUND": "Cc1ccc(OC(=O)N2CCN(C(=O)[C@@H](CCCCN(C)C)NC3CCC4(CC3)CCN(Cc3ccccc3)C4)[C@H](C(=O)NCc3cccs3)C2)c(Cl)c1C (stereo partly drawn)",
    "IC50 (nM)": 0.3
  },
  {
    "COMPOUND": "COc1cc(CNC(=O)[C@@H]2CN(C3=N[C@@H](C)[C@H](c4ccccc4)O3)CCN2C(=O)[C@@H](CCCCN2CCCCC2)NC(C)C)ccc1CN",
    "IC50 (nM)": 8.1
  },
  {
    "COMPOUND": "COc1cc(CNC(=O)[C@@H]2CN(C(=O)Oc3ccc4ccccc4c3Cl)CCN2C(=O)[C@H](N)CCCCN(C)C)ccc1CN",
    "IC50 (nM)": 1.7
  }
]

Indicate its recorded IC50; the compound in question is C[C@H]1N=C(N2CCN(C(=O)[C@@H](CC3CCCCC3)NC3CCCCC3)[C@H](C(=O)NCc3cccs3)C2)O[C@H]1c1ccccc1 17.1

Give me measured IC50, please, for this compound: CN(C)CCCC[C@H](C(=O)N1CCN(C2=NC(C)(C)C(c3ccccc3)O2)C[C@H]1C(=O)NCc1ccc2[nH]cc(Cl)c2c1)N(C)C (stereo partly drawn) [Example 145] 6.7

Please supply the value of reported IC50 for the item NCc1ccc(CNC(=O)[C@@H]2CN(C(=O)Oc3cccc4ccccc34)CCN2C(=O)[C@@H](CC2CCCCC2)NC2CCCCC2)cc1 8.4

Specify reported IC50 for the compound shown: CC[C@@H](NC1CCCCC1)C(=O)N1CCN(C(=O)Oc2ccc(C)c(C)c2Cl)C[C@H]1C(=O)NCc1ccc(CN)c(OC)c1 6.2

Look up and report measured IC50 for this entry: CN(C)CCCC[C@@H](NC1CCC2(CC1)CCN(Cc1ccccc1)C2)C(=O)N1CCN(C(=O)Oc2ccccc2Cl)C[C@H]1C(=O)NCc1cccs1 (stereo partly drawn) [Example 78] 0.9

Item Cc1ccc(OC(=O)N2CCN(C(=O)[C@@H](CCCCNC(C)C)NC3CCC4(CC3)CCN(Cc3ccccc3)C4)[C@H](C(=O)NCc3cccs3)C2)c(Cl)c1C (stereo partly drawn) : provide IC50 0.5

Given Cc1ccc(OC(=O)N2CCN(C(=O)[C@@H](CCCCN3CCCC3C)NC3CCC4(CC3)CCN(Cc3ccccc3)C4)[C@H](C(=O)NCc3cccs3)C2)c(Cl)c1C (stereo partly drawn) , respond with its IC50. 0.3

Quickly give me recorded IC50 for COC(N)c1cccc(OC(=O)N2CCN(C(=O)[C@@H](CCCCNS(C)(=O)=O)NC3CCC4(CC3)CCN(Cc3ccccc3)C4)[C@H](C(=O)NCc3cccs3)C2)c1 (stereo partly drawn) 5.7

---

# STUDY SYSTEM: UniProt P00748
Binary call on IC50 with cut-off 4 nM: strictly below means satisfied, and equality or higher means not satisfied.

Would you please look over these solved cases?
[
  {
    "COMPOUND": "C[C@H]1N=C(N2CCN(C(=O)[C@@H](CCCCN(C)C)NC3CCC4(CC3)CCN(Cc3ccccc3)C4)[C@H](C(=O)NCc3cccs3)C2)O[C@@H]1c1ccccc1 (some centres unmarked) [Example 143]",
    "CLASS LABEL": "not satisfied"
  },
  {
    "COMPOUND": "Cc1ccc(OC(=O)N2CCN(C(=O)[C@@H](CCCCN(C)C)N(C)C3CCC4(CC3)CCN(Cc3ccccc3)C4)[C@H](C(=O)NCc3cccs3)C2)c(Cl)c1C (some centres unmarked) [Example 100]",
    "CLASS LABEL": "satisfied"
  },
  {
    "COMPOUND": "CC[C@@H](NC1CCC2(CC1)CCN(Cc1ccccc1)C2)C(=O)N1CCN(C(=O)Oc2ccc(C)c(C)c2Cl)C[C@H]1C(=O)NCc1ccc(CN)c(OC)c1 (some centres unmarked) [Example 107]",
    "CLASS LABEL": "not satisfied"
  }
]

Next:
Is IC50 of COc1cc(CNC(=O)[C@@H]2CN(C(=O)Oc3ccc4ccccc4c3Cl)CCN2C(=O)[C@@H](CCCCNS(C)(=O)=O)NC2CCC3(CC2)CCN(Cc2ccccc2)C3)ccc1CN (some centres unmarked) [Example 74] strictly below 4 nM? satisfied
